ALKALINE PHOSPHATASE listing for selected molecules.
Species: Rattus norvegicus
Experiment: DrugMatrix - Regimen: Daily Repeat
Type: toxicity, organism-based, Sprague-Dawley
Parameters: regimen Daily Repeat, gender Male, age 6-8 weeks
Conditions: in vivo, po, 0 mg/kg, 72 h, tissue Plasma, route oral GAVAGE, dose level Control, time 3 day, vehicle 100 % WATER
READOUT_KIND: ALKALINE PHOSPHATASE

• Cc1ncc([N+](=O)[O-])n1CCO = 395 u/L
• C[N+](C)(C)CCO.[Cl-] [CHOLINE CHLORIDE] = 363.5 u/L
• CC(C)C[C@H](NC(=O)[C@@H](O)[C@H](N)Cc1ccccc1)C(=O)O = 334.17 u/L
• COC(=O)C1=C(C)NC(C)=C(C(=O)OCC(C)C)C1c1ccccc1[N+](=O)[O-] (stereo not given) = 383.83 u/L
• ClC(Cl)Cl [CHLOROFORM] = 395 u/L
• Nc1ccn([C@@H]2CS[C@H](CO)O2)c(=O)n1 = 368.33 u/L
• CC(C)NCC(O)COc1cccc2ccccc12 (stereo not given) = 331 u/L
• CC(C)(C)c1ccc(C(=O)CCCN2CCC(OC(c3ccccc3)c3ccccc3)CC2)cc1 = 340.17 u/L
• C[C@@H]1C[C@@H]([C@H](O)CC2CC(=O)NC(=O)C2)C(=O)[C@@H](C)C1 [CYCLOHEXIMIDE] = 400.83 u/L
• COc1cc2ncnc(Nc3ccc(F)c(Cl)c3)c2cc1OCCCN1CCOCC1 = 369 u/L

----------
ALANINE AMINOTRANSFERASE listing for selected molecules.
Species on record: Rattus norvegicus
Assay: DrugMatrix - Regimen: Daily Repeat
Assay type: toxicity, organism-based, Sprague-Dawley
Parameters: regimen Daily Repeat, gender Male, age 6-8 weeks
Details: in vivo, po, 0 mg/kg, 120 h, tissue Plasma, route oral GAVAGE, dose level Control, time 5 day, vehicle .5 % CMC
READOUT_KIND: ALANINE AMINOTRANSFERASE (u/L)

- CC(=O)CC(c1ccccc1)c1c(O)c2ccccc2oc1=O (stereo not drawn): 43.33
- CNC(=C[N+](=O)[O-])NCCSCc1ccc(CN(C)C)o1: 54.17
- O=[N+]([O-])c1ccccc1: 37.5
- CN1CCC(=C2c3ccccc3C=Cc3ccccc32)CC1: 38.67
- O=C1CCC(N2C(=O)c3ccccc3C2=O)C(=O)N1 (stereo not drawn) [THALIDOMIDE]: 42.17
- CO[C@H]1/C=C/O[C@@]2(C)Oc3c(C)c(O)c4c(c3C2=O)C2=NC3(CCN(CC(C)C)CC3)NC2=C(NC(=O)/C(C)=C\C=C\[C@H](C)[C@H](O)[C@@H](C)[C@@H](O)[C@@H](C)[C@H](OC(C)=O)[C@@H]1C)C4=O: 54.17
- CC(C)[C@H]1CC[C@H](C(=O)N[C@H](Cc2ccccc2)C(=O)O)CC1 [NATEGLINIDE]: 49.67
- CN1C(=O)COc2c(C(=O)NC3CN4CCC3CC4)cc(Cl)cc21 (stereo not drawn): 49

----------
ABSOLUTE SEGMENTED NEUTROPHIL listing for selected molecules.
Species on record: Rattus norvegicus
Experiment: DrugMatrix - Regimen: Daily Repeat
Assay type: toxicity, organism-based, Sprague-Dawley
Set-up: regimen Daily Repeat, gender Male, age 6-8 weeks
Conditions: in vivo, iv, 0 mg/kg, 120 h, tissue Blood, dose level Control, time 5 day, vehicle 100 % SALINE
READOUT_KIND: ABSOLUTE SEGMENTED NEUTROPHIL

- CCc1c2c(nc3ccc(OC(=O)N4CCC(N5CCCCC5)CC4)cc13)-c1cc3c(c(=O)n1C2)COC(=O)[C@]3(O)CC [IRINOTECAN]: 746.33 CELLS/uL
- COc1cccc2c1C(=O)c1c(O)c3c(c(O)c1C2=O)C[C@@](O)(C(=O)CO)C[C@@H]3O[C@H]1C[C@H](N)[C@@H](O)[C@H](C)O1 [EPIRUBICIN]: 746.33 CELLS/uL
- CCC1=C[C@@H]2CN(C1)Cc1c([nH]c3ccccc13)[C@@](C(=O)OC)(c1cc3c(cc1OC)N(C)[C@H]1[C@@](O)(C(=O)OC)[C@H](OC(C)=O)[C@]4(CC)C=CCN5CC[C@]31[C@@H]54)C2 [VINORELBINE]: 1733.83 CELLS/uL
- CC[C@]1(O)C[C@@H]2CN(CCc3c([nH]c4ccccc34)[C@@](C(=O)OC)(c3cc4c(cc3OC)N(C)[C@H]3[C@@](O)(C(=O)OC)[C@H](OC(C)=O)[C@]5(CC)C=CCN6CC[C@]43[C@@H]65)C2)C1 [VINBLASTINE]: 730.67 CELLS/uL
- COc1cccc2c1C(=O)c1c(O)c3c(c(O)c1C2=O)C[C@@](O)(C(=O)CO)C[C@@H]3O[C@H]1C[C@H](N)[C@H](O)[C@H](C)O1 [DOXORUBICIN]: 832 CELLS/uL

----------
Species: Rattus norvegicus
Test: DrugMatrix - Regimen: Daily Repeat
Assay type: toxicity, organism-based, Sprague-Dawley
Design: regimen Daily Repeat, gender Male, age 6-8 weeks
Conditions: in vivo, po, 0 mg/kg, 72 h, tissue Blood, route oral GAVAGE, dose level Control, time 3 day, vehicle .5 % CMC
READOUT_KIND: HEMOGLOBIN (G/DL)

* CN1CCC(=C2c3ccccc3C=Cc3ccccc32)CC1 [CYPROHEPTADINE] | 14.26
* Clc1ccc2c(c1)C(N1CCNCC1)=Nc1ccccc1O2 [AMOXAPINE] | 13.82
* O=C1CCC(N2C(=O)c3ccccc3C2=O)C(=O)N1 (stereo unspecified) [THALIDOMIDE] | 13.62
* CC[C@@H](CO)NCCN[C@@H](CC)CO [ETHAMBUTOL] | 14.92
* N=C(N)NC(=O)c1nc(Cl)c(N)nc1N [AMILORIDE] | 14.92
* CN1C(=O)COc2c(C(=O)NC3CN4CCC3CC4)cc(Cl)cc21 (stereo unspecified) [AZASETRON] | 13.38
* C[C@](O)(CS(=O)(=O)c1ccc(F)cc1)C(=O)Nc1ccc(C#N)c(C(F)(F)F)c1 [(R)-BICALUTAMIDE] | 13.68
* Cc1onc(-c2ccccc2)c1-c1ccc(S(N)(=O)=O)cc1 [VALDECOXIB] | 14.1
* C[C@]1(Cn2ccnn2)[C@H](C(=O)O)N2C(=O)C[C@H]2S1(=O)=O [TAZOBACTAM] | 13.45
* OC(CCN1CCCCC1)(c1ccccc1)C1CCCCC1 (stereo unspecified) [TRIHEXYPHENIDYL] | 13.8
* CNC(=C[N+](=O)[O-])NCCSCc1ccc(CN(C)C)o1 [RANITIDINE] | 14.22
* CO[C@H]1/C=C/O[C@@]2(C)Oc3c(C)c(O)c4c(c3C2=O)C2=NC3(CCN(CC(C)C)CC3)NC2=C(NC(=O)/C(C)=C\C=C\[C@H](C)[C@H](O)[C@@H](C)[C@@H](O)[C@@H](C)[C@H](OC(C)=O)[C@@H]1C)C4=O [RIFABUTIN] | 14.22
* C#C[C@]1(O)CC[C@H]2[C@@H]3CCc4cc(OC)ccc4[C@H]3CC[C@@]21C [MESTRANOL] | 14.22
* CC(C)[C@H]1CC[C@H](C(=O)N[C@H](Cc2ccccc2)C(=O)O)CC1 [NATEGLINIDE] | 13.35
* O=[N+]([O-])c1ccccc1 [NITROBENZENE] | 13.52
* CC(=O)CC(c1ccccc1)c1c(O)c2ccccc2oc1=O (stereo unspecified) [WARFARIN] | 12.75

----------
Organism: Rattus norvegicus
Assay: DrugMatrix - Regimen: Daily Repeat
Type: toxicity, organism-based, Sprague-Dawley
Parameters: regimen Daily Repeat, gender Male, age 6-8 weeks
Conditions: in vivo, iv, 0 mg/kg, 120 h, tissue Plasma, dose level Control, time 5 day, vehicle 100 % SALINE
SODIUM listing for selected compounds.
READOUT_KIND: SODIUM (MEQ/L)

• COc1cccc2c1C(=O)c1c(O)c3c(c(O)c1C2=O)C[C@@](O)(C(=O)CO)C[C@@H]3O[C@H]1C[C@H](N)[C@@H](O)[C@H](C)O1 [EPIRUBICIN] = 139.78
• CC(=O)N[C@@H]1[C@H](Oc2c3cc4cc2Oc2ccc(cc2Cl)[C@@H](O[C@@H]2O[C@@H](CO)[C@@H](O)[C@H](O)[C@@H]2NC(C)=O)[C@@H]2NC(=O)[C@H](NC(=O)[C@@H]4NC(=O)[C@H]4NC(=O)[C@@H](Cc5ccc(c(Cl)c5)O3)NC(=O)[C@H](N)c3ccc(O)c(c3)Oc3cc(O)cc4c3)c3ccc(O)c(c3)-c3c(O[C@H]4O[C@H](CO)[C@@H](O)[C@@H](O)[C@@H]4O)cc(O)cc3[C@@H](C(=O)O)NC2=O)O[C@@H](CO)[C@@H](O)[C@@H]1O = 143.4
• CCc1c2c(nc3ccc(OC(=O)N4CCC(N5CCCCC5)CC4)cc13)-c1cc3c(c(=O)n1C2)COC(=O)[C@]3(O)CC = 139.78
• CCC1=C[C@@H]2CN(C1)Cc1c([nH]c3ccccc13)[C@@](C(=O)OC)(c1cc3c(cc1OC)N(C)[C@H]1[C@@](O)(C(=O)OC)[C@H](OC(C)=O)[C@]4(CC)C=CCN5CC[C@]31[C@@H]54)C2 = 143.02
• CC[C@]1(O)C[C@@H]2CN(CCc3c([nH]c4ccccc34)[C@@](C(=O)OC)(c3cc4c(cc3OC)N(C)[C@H]3[C@@](O)(C(=O)OC)[C@H](OC(C)=O)[C@]5(CC)C=CCN6CC[C@]43[C@@H]65)C2)C1 = 142.55
• COc1cccc2c1C(=O)c1c(O)c3c(c(O)c1C2=O)C[C@@](O)(C(=O)CO)C[C@@H]3O[C@H]1C[C@H](N)[C@H](O)[C@H](C)O1 = 143.1
